Target: T1, human Nectin-4 extracellular antigen hNectin-4-His (human, UniProt Q96NY8 32-349)
T1 construct: C-terminal 8xHis tag included
T1 sequence: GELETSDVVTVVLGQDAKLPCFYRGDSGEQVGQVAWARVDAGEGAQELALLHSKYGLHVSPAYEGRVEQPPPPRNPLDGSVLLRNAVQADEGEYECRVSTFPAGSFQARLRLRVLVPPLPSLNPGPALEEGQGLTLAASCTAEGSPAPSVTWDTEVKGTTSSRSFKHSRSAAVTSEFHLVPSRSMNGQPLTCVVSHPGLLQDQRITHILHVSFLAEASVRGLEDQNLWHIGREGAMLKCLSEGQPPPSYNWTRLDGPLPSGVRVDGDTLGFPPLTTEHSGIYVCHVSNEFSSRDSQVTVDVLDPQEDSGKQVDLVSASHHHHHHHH
Test: SPR, antibody on Protein A chip, 1:1 fit
parameter: pKd
pKd is a log-scale quantity: -log10 of the concentration expressed in molar.

Can you share its pKd? I mean this binder: antibody 10F4-2F11 (antibody, human IgG1, kappa, V domains shown) VH: EVQLVESGGGLVQPGGSLRLSCAASGYNFTSYDMSWVRQAPGKGLEWVSGIKTGGGSARYADSVKGRFTISRDNSKNTLYLQMNSLRAEDTAVYYCAREYSDVVDYVSVRTPLDYWGQGTLVTVSS VL: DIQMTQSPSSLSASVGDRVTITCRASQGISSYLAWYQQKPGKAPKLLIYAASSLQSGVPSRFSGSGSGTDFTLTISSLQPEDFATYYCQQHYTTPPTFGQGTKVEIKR
9.40

Give its pKd value. Item: antibody 1G8-2C6 (antibody, human IgG1, kappa, V domains shown) VH: EVQLVESGGGLVQPGGSLRLSCAASGDNFSSYAMSWVRQAPGKGLEWVSRIYGSDSTPDYADSVKGRFTISRDNSKNTLYLQMNSLRAEDTAVYYCARQTEDRSYGYDLDYWGQGTLVTVSS VL: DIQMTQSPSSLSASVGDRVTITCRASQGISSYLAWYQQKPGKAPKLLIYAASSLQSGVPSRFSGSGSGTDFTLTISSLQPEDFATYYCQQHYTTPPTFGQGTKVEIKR
8.73
